A set of compounds tested on PI3Kα (Homo sapiens, UniProt P42336), with measured IC50:
result_type: IC50 (nM)

compound	result_type	reading_unit	recorded_value
Cn1cc(/C=C2\Oc3cccc(O)c3C2=O)c2c(-c3ccc(C(=O)N4CCN(CCO)CC4)cc3)ccnc21	IC50	nM	100
Cn1cc(/C=C2\Oc3cc(O)cc(O)c3C2=O)c2c(N3CCCCC3)ccnc21	IC50	nM	68
Cn1cc(/C=C2\Oc3cccc(O)c3C2=O)c2c(N3CC4COC(C3)O4)ccnc21 (stereo not shown)	IC50	nM	25
Cn1cc(/C=C2\Oc3cccc(O)c3C2=O)c2c(-c3ccc(S(C)(=O)=O)cc3)ccnc21	IC50	nM	23

====

- experimental_system: UniProt P42345
- experimental_details: mTOR enzyme assay (DELFIA format, His6-S6K substrate)
- Type: biochemical
- condition_summary: read-out: mTOR Kinase Median IC50
The label met is reserved for IC50 strictly under 20 nM; not met covers values equal to or above it.

compound	label
Cn1cc(/C=C2\Oc3cc(O)cc(O)c3C2=O)c2c(-c3ccc(OC(F)(F)F)cc3)ccnc21 [Compound 15]	met
Cn1cc(/C=C2\Oc3ccc(NC(=O)Nc4cccnc4)cc3C2=O)c2c(N3CCC(C(=O)N4CC5CCC4CO5)CC3)ccnc21 (centres unmarked) [Compound 233]	not met
Cn1cc(/C=C2\Oc3ccc(NC(=O)Nc4cccnc4)cc3C2=O)c2c(N3CC4CCC(C3)O4)ccnc21 [Compound 167]	met
CC(C)NC(=O)Nc1ccc2c(c1)C(=O)/C(=C/c1cn(C)c3nccc(N4CCC(C(=O)N(C)C)CC4)c13)O2 [Compound 288]	not met
CC(=O)Nc1ccc2c(c1)C(=O)/C(=C/c1cn(C)c3nccc(-c4ccccc4)c13)O2 [Compound 154]	not met
COc1cccc(-c2ccnc3c2c(/C=C2\Oc4cc(O)cc(O)c4C2=O)cn3C)c1 [Compound 66]	met
Cn1cc(/C=C2\Oc3cccc(O)c3C2=O)c2c(N3CCC(C(=O)N4CCN(CCO)CC4)CC3)ccnc21 [Compound 307]	met
Cn1cc(/C=C2\Oc3cccc(O)c3C2=O)c2c(-c3ccc(CO)nc3)ccnc21 [Compound 76]	met
CC(=O)Nc1ccc(-c2ccnc3c2c(/C=C2\Oc4cc(O)cc(O)c4C2=O)cn3C)cc1 [Compound 35]	met
Cn1cc(/C=C2\Oc3cccc(O)c3C2=O)c2c(-c3ccc(N4CCOCC4)nc3)ccnc21 [Compound 69]	not met
Cn1cc(/C=C2\Oc3cc(O)cc(O)c3C2=O)c2c(-c3ccc(CO)cc3)ccnc21 [Compound 67]	met
Cn1cc(/C=C2\Oc3ccc(Br)cc3C2=O)c2c(-c3ccccc3)ccnc21 [Compound 37]	not met
Cn1cc(/C=C2\Oc3cccc(O)c3C2=O)c2c(-c3ccc(S(=O)(=O)N4CCOCC4)cc3)ccnc21 [Compound 191]	met
Cn1cc(/C=C2\Oc3cc(O)cc(O)c3C2=O)c2c(-c3ccc(N)cc3)ccnc21 [Compound 41]	met
Cn1cc(/C=C2\Oc3ccc(NC(=O)Nc4nc5ccccc5n4C)cc3C2=O)c2c(N3CC4CCC(C3)O4)ccnc21 [Compound 289]	not met
CN(C)CCNC(=O)Nc1ccc2c(c1)C(=O)/C(=C/c1cn(C)c3nccc(N4CC5CCC(C4)O5)c13)O2 [Compound 193]	met
CN1CCN(C(=O)Nc2ccc3c(c2)C(=O)/C(=C/c2cn(C)c4nccc(-c5ccccc5)c24)O3)CC1 [Compound 188]	not met
CN(C)CCCNC(=O)Nc1ccc2c(c1)C(=O)/C(=C/c1cn(C)c3nccc(N4CC5CCC(C4)O5)c13)O2 [Compound 241]	met
Cn1cc(/C=C2\Oc3cc(O)cc(O)c3C2=O)c2c(-c3cncnc3)ccnc21 [Compound 62]	met
CCN(CCO)C(=O)c1ccc(-c2ccnc3c2c(/C=C2\Oc4cccc(O)c4C2=O)cn3C)cc1 [Compound 243]	not met
COCCN(C)C(=O)C1CCN(c2ccnc3c2c(/C=C2\Oc4ccc(NC(=O)Nc5cccnc5)cc4C2=O)cn3C)CC1 [Compound 246]	not met
CN(C(=O)C1CCN(c2ccnc3c2c(C=C2Oc4ccc(NC(=O)Nc5cccnc5)cc4C2=O)cn3C)CC1)[C@@H]1CCNC1 [Compound 206]	not met
CN1CCN(c2ccc(NC(=O)Nc3ccc4c(c3)C(=O)/C(=C/c3cn(C)c5nccc(N6CCC(C(=O)N(C)C)CC6)c35)O4)cc2)CC1 [Compound 218]	not met
CN1CCN(CCNC(=O)Nc2ccc3c(c2)C(=O)/C(=C/c2cn(C)c4nccc(N5CC6CCC(C5)O6)c24)O3)CC1 [Compound 194]	not met
Cn1cc(/C=C2\Oc3cccc(O)c3C2=O)c2c(N3CC4(C)CC3CC(C)(C)C4)ccnc21 (centres unmarked) [Compound 105]	not met
Cn1cc(/C=C2\Oc3cccc(O)c3C2=O)c2c(-c3ccc(S(=O)(=O)NC4CC4)cc3)ccnc21 [Compound 82]	met
Cn1cc(/C=C2\Oc3cc(O)cc(F)c3C2=O)c2c(-c3ccccc3)ccnc21 [Compound 32]	not met
Cc1cc(CN(C)C(=O)C2CCN(c3ccnc4c3c(/C=C3\Oc5ccc(NC(=O)Nc6cccnc6)cc5C3=O)cn4C)CC2)ccn1 [Compound 223]	not met
Cn1cc(/C=C2\Oc3cccc(O)c3C2=O)c2c(-c3ccc(C(=O)N4CCC(O)C4)cc3)ccnc21 (centres unmarked) [Compound 245]	met

====

- experimental_system: PI3Kγ (Homo sapiens, UniProt P48736)
- Sequence (P48736 whole entry, species assumed): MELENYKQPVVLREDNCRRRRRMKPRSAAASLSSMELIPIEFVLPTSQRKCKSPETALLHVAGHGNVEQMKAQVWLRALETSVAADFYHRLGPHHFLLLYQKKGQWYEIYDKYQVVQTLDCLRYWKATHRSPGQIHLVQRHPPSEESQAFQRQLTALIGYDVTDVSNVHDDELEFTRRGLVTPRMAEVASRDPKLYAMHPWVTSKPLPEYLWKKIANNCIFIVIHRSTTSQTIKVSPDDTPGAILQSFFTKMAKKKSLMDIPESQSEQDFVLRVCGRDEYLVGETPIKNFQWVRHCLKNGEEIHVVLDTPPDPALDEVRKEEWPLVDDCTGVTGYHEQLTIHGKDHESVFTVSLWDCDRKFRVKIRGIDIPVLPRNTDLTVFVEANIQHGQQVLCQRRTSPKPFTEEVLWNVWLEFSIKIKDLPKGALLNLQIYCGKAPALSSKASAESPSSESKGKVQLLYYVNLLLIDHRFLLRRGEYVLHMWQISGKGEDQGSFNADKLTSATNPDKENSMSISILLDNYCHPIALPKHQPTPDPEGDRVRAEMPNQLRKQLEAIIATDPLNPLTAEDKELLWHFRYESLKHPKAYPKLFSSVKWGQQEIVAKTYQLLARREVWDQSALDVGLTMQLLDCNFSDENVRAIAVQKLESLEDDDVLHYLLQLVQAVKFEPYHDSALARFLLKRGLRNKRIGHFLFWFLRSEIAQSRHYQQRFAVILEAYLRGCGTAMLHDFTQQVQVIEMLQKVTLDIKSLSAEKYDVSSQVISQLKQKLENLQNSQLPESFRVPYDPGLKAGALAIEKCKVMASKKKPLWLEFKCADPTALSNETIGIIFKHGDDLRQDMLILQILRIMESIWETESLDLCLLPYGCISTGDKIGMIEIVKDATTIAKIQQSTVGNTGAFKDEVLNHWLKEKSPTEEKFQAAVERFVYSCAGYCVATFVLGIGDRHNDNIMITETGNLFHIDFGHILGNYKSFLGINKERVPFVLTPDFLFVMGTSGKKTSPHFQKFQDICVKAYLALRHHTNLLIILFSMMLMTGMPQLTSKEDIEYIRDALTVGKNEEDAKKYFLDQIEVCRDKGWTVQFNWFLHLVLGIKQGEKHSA
Each record gets a class by IC50: group 1 = under 100 nM, group 2 = from 100 nM up to 1000 nM, group 3 = 1000 nM and over

compound	label
CC(C)NC(=O)Nc1ccc2c(c1)C(=O)/C(=C/c1cn(C)c3nccc(N4CCC(C(=O)N(C)C)CC4)c13)O2	group 3
CN1CCN(c2ccnc3c2c(/C=C2\Oc4cccc(O)c4C2=O)cn3C)CC1	group 2
CN(C)C(=O)C1CCN(c2ccnc3c2c(/C=C2\Oc4cccc(O)c4C2=O)cn3C)CC1	group 1
Cn1cc(/C=C2\Oc3cccc(O)c3C2=O)c2c(-c3ccc(CN4CCOCC4)cc3)ccnc21	group 2
Cn1cc(/C=C2\Oc3cccc(O)c3C2=O)c2c(-c3ccc(C(=O)Nc4ccc(F)cc4)cc3)ccnc21	group 2
Cn1cc(/C=C2\Oc3ccc(NC(=O)Nc4ccccc4)cc3C2=O)c2c(N3CC4CCC(C3)O4)ccnc21	group 3
Cn1cc(/C=C2\Oc3ccc(NC(=O)Nc4cccnc4)cc3C2=O)c2c(N3CC4CC3CO4)ccnc21 (stereo not drawn)	group 2
CN(C)C(=O)C1CCN(c2ccnc3c2c(/C=C2\Oc4ccc(NC(=O)NC5CC5)cc4C2=O)cn3C)CC1	group 3
CN(Cc1ccccn1)C(=O)C1CCN(c2ccnc3c2c(/C=C2\Oc4ccc(NC(=O)Nc5cccnc5)cc4C2=O)cn3C)CC1	group 3
CN(C)CCNC(=O)Nc1ccc2c(c1)C(=O)/C(=C/c1cn(C)c3nccc(N4CC5CCC(C4)O5)c13)O2	group 1
CN1CCN(C(=O)C2CCN(c3ccnc4c3c(/C=C3\Oc5cccc(O)c5C3=O)cn4C)CC2)CC1	group 2
CN(C)C(=O)Nc1ccc(-c2ccnc3c2c(/C=C2\Oc4cccc(O)c4C2=O)cn3C)cc1	group 1
Cn1cc(/C=C2\Oc3ccc(NC(=O)Nc4cccnc4)cc3C2=O)c2c(N3CC4CCC(C3)O4)ccnc21	group 3
Cn1cc(/C=C2\Oc3cccc(O)c3C2=O)c2c(N3CCC(C(N)=O)CC3)ccnc21	group 2

====

smiles_str	melting point
Cn1cc(/C=C2\Oc3ccc(NS(C)(=O)=O)cc3C2=O)c2c(-c3ccccc3)ccnc21	257 to 262 °C
CN(C)CCNC(=O)c1ccc2c(c1)C(=O)/C(=C/c1cn(C)c3nccc(-c4ccccc4)c13)O2	255 to 256 °C
Cn1cc(/C=C2\Oc3cccc(O)c3C2=O)c2c(N3C4CCC3COC4)ccnc21	284 to 291 °C

====

- experimental_system: UniProt P42345
- experimental_details: mTOR enzyme assay (DELFIA format, His6-S6K substrate)
- Format: biochemical
- condition_summary: read-out: mTOR Kinase Median IC50
pIC50: −log10 of the molar value.
Each record gets a class by pIC50: range A: < 7; range B: ≥ 7 and < 8; range C: ≥ 8

smiles_str	label
Cn1cc(/C=C2\Oc3cccc(O)c3C2=O)c2c(N3CCC(C(=O)NCCO)CC3)ccnc21	range C
CN(C(=O)C1CCN(c2ccnc3c2c(C=C2Oc4ccc(NC(=O)Nc5cccnc5)cc4C2=O)cn3C)CC1)C1CCOCC1	range B
CN(C)c1ccc(-c2ccnc3c2c(/C=C2\Oc4cc(O)cc(O)c4C2=O)cn3C)cc1	range C
CONC(=O)c1ccc(-c2ccnc3c2c(/C=C2\Oc4ccc(NC(=O)Nc5cccnc5)cc4C2=O)cn3C)cc1	range A
Cn1c(-c2ccccc2)c(/C=C2\Oc3cc(O)ccc3C2=O)c2cccnc21	range A
Cn1cc(/C=C2\Oc3ccc(NC(=O)Nc4cccnc4)cc3C2=O)c2c(N3C4CCCC3COC4)ccnc21	range B
Cn1cc(/C=C2\Oc3cc(O)cc(O)c3C2=O)c2c(-c3ccc(Cl)cc3)ccnc21	range C
